Reference source: PubChem BioAssay

Molecular target: Concanavalin-A (Canavalia ensiformis) (UniProt P02866)
Sequence (P02866 whole entry, looked up): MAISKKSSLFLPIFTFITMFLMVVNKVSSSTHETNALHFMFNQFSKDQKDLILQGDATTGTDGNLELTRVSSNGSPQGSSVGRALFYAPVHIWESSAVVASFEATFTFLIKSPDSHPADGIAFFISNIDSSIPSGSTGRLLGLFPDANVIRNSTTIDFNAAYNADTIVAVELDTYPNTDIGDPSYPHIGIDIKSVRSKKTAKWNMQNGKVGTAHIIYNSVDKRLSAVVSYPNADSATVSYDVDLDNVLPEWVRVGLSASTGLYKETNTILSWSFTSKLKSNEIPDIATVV
Experiment: ConA small-molecule binders, primary screen, artefact control for SMM control protein annotation, biochemical, small-molecule microarray, Alexa647 label, 635 nm (AID 1127);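 further: z combines 667 nm emission intensity with signal-to-noise across three replicate slides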
Details: ConA-A647 binding fluorescence, higher = more signal
Measurement Label: composite z-score
Give bare numbers.

| Compound | composite z-score |
| --- | --- |
| O=C1C2C=CC(C(O)c3ccccc3)N(n3cnnc3)C2C(=O)N1Cc1ccccc1 (centres undefined) | 0.161 |
| COCCCNC(=O)[C@@]1(Sc2ccc(C)cc2)CC(=O)N(Cc2cc(C(F)(F)F)cc(C(F)(F)F)c2)[C@@H]1c1ccc(CO)cc1I | -0.82 |
| C=CCC(OC(C)=O)[C@@H]1[C@@H](N(Cc2ccc(-c3ccccc3)cc2)C(=O)c2ccc(C)cc2)c2cc(OCCCO)ccc2N1C(=O)c1ccc(-c2ccccc2)cc1 (some centres undefined) | -0.925 |

Now for another entry.
Please look at this compound and report its composite z-score: Cc1ccc(S[C@]2(C(=O)O)CC(=O)N(Cc3ccccc3)[C@@H]2c2ccc(CO)cc2)cc1
-0.467
